- Organism: Rattus norvegicus
- test details: The distribution of the 131 I-labeled compound at 5 min was evaluated in rat liver as Percent of injected dose in the total organ
- Type: ADME, organism-based
- applied conditions: in vivo
Assign classes using reported Dose values and the ranges low class = under 6%, middle class = from 6% up to 10%, high class = 10% and over, please.

# count of solved cases: 6
{"columns": ["molecule", "assigned label"],
 "data": [
  ["COc1cc(CC(C)NCC2CC2)c(OC)cc1I (stereo not drawn)", "low class"],
  ["COc1cc(CC(C)NN)c(OC)cc1I (stereo not drawn)", "high class"],
  ["COc1cc(CC(C)N(C)Cc2ccccc2)c(OC)cc1I (stereo not drawn)", "high class"],
  ["CCCCCCNC(C)Cc1cc(OC)c(I)cc1OC (stereo not drawn)", "low class"],
  ["COc1cc(CC(C)N)c(OC)cc1I (stereo not drawn)", "low class"],
  ["COc1cc(CC(C)N(C)C)c(OC)cc1I (stereo not drawn)", "high class"]
]}

Request: Please indicate the class for COc1cc(CC(C)NCC#N)c(OC)cc1I (stereo not drawn) based on its Dose.
Result: middle class

Request: Please indicate the class for COc1cc(CC(C)NCc2ccccc2)c(OC)cc1I (stereo not drawn) based on its Dose.
Result: low class

Request: Please indicate the class for CNC(C)Cc1cc(OC)c(I)cc1OC (stereo not drawn) based on its Dose.
Result: low class

Request: Please indicate the class for COc1cc(CC(C)NCCCN(C)C)c(OC)cc1I (stereo not drawn) based on its Dose.
Result: high class

Request: Please indicate the class for COc1cc(CC(C)NC(C)C)c(OC)cc1I (stereo not drawn) based on its Dose.
Result: middle class

---

- Organism: Rattus norvegicus
- test details: Ratio of distribution of the [131I]-labeled compound at 5 min in rat liver over uptake in blood
- Format: ADME, organism-based
- applied conditions: other tissue
experimental readout: Ratio

{"columns": ["compound", "result"],
 "data": [
  ["CNC(C)Cc1cc(OC)c(I)cc1OC (stereo not given)", 5.4],
  ["COc1cc(CC(C)NC(C)C)c(OC)cc1I (stereo not given)", 4.4],
  ["COc1cc(CC(C)NCC2CC2)c(OC)cc1I (stereo not given)", 4.5],
  ["COc1cc(CC(C)N(C)C)c(OC)cc1I (stereo not given)", 5.5],
  ["COc1cc(CC(C)N)c(OC)cc1I (stereo not given)", 12],
  ["COc1cc(CC(C)N(C)Cc2ccccc2)c(OC)cc1I (stereo not given)", 6.7],
  ["CCCCCCNC(C)Cc1cc(OC)c(I)cc1OC (stereo not given)", 5.4],
  ["CCN(CC)C(C)Cc1cc(OC)c(I)cc1OC (stereo not given)", 5.5],
  ["COc1cc(CC(C)NN)c(OC)cc1I (stereo not given)", 3.6],
  ["COc1cc(CC(C)N(C)C(C)C)c(OC)cc1I (stereo not given)", 1.6]
]}

Request: Name the recorded Ratio for COc1cc(CC(C)NCC#N)c(OC)cc1I (stereo not given) .
Result: 4.8

Request: Name the recorded Ratio for COc1cc(CC(C)NCCCN(C)C)c(OC)cc1I (stereo not given) .
Result: 6

Request: Name the recorded Ratio for COc1cc(CC(C)NO)c(OC)cc1I (stereo not given) .
Result: 9.5

Request: Name the recorded Ratio for CCCCCCCCCCCCNC(C)Cc1cc(OC)c(I)cc1OC (stereo not given) .
Result: 2.5

Request: Name the recorded Ratio for COc1cc(CC(C)NCc2ccccc2)c(OC)cc1I (stereo not given) .
Result: 6

---

- Organism: Rattus norvegicus
- test details: The distribution of the 131 I-labeled compound at 30 min was evaluated in rat lung as Percent of injected dose per gram in the organ
- Format: ADME, organism-based
- applied conditions: in vivo, 0.5 h
Please respond with 1.0 when measured Dose is strictly beneath 2%, and with 0.0 in all other cases.

# count of solved cases: 3
{"columns": ["compound", "assigned label"],
 "data": [
  ["CNC(C)Cc1cc(OC)c(I)cc1OC (stereo not drawn)", 0.0],
  ["CCN(CC)C(C)Cc1cc(OC)c(I)cc1OC (stereo not drawn)", 1.0],
  ["COc1cc(CC(C)NCCCN(C)C)c(OC)cc1I (stereo not drawn)", 0.0]
]}

Request: State whether 2% exceeds Dose recorded for COc1cc(CC(C)NCC#N)c(OC)cc1I (stereo not drawn) .
Result: 1.0

Request: State whether 2% exceeds Dose recorded for COc1cc(CC(C)NCC2CC2)c(OC)cc1I (stereo not drawn) .
Result: 0.0

Request: State whether 2% exceeds Dose recorded for COc1cc(CC(C)NC(C)C)c(OC)cc1I (stereo not drawn) .
Result: 0.0

Request: State whether 2% exceeds Dose recorded for COc1cc(CC(C)N(C)Cc2ccccc2)c(OC)cc1I (stereo not drawn) .
Result: 1.0

Request: State whether 2% exceeds Dose recorded for COc1cc(CC(C)N(C)C)c(OC)cc1I (stereo not drawn) .
Result: 1.0

Request: State whether 2% exceeds Dose recorded for COc1cc(CC(C)NN)c(OC)cc1I (stereo not drawn) .
Result: 1.0

Request: State whether 2% exceeds Dose recorded for COc1cc(CC(C)N(C)C(C)C)c(OC)cc1I (stereo not drawn) .
Result: 1.0

Request: State whether 2% exceeds Dose recorded for CCCCCCNC(C)Cc1cc(OC)c(I)cc1OC (stereo not drawn) .
Result: 0.0

Request: State whether 2% exceeds Dose recorded for COc1cc(CC(C)N)c(OC)cc1I (stereo not drawn) .
Result: 0.0

Request: State whether 2% exceeds Dose recorded for COc1cc(CC(C)NCc2ccccc2)c(OC)cc1I (stereo not drawn) .
Result: 0.0

---

- Species: Rattus norvegicus
- test details: The distribution of the 131 I-labeled compound at 5 min was evaluated in rat kidney as Percent of injected dose in the total organ
- Type: ADME, organism-based
- applied conditions: in vivo
Please respond with 1 when measured Dose is strictly beneath 5%, and with -1 in all other cases.

# count of solved cases: 5
{"columns": ["compound", "assigned label"],
 "data": [
  ["COc1cc(CC(C)NCCCN(C)C)c(OC)cc1I (centres undefined)", -1],
  ["COc1cc(CC(C)N)c(OC)cc1I (centres undefined)", 1],
  ["COc1cc(CC(C)N(C)Cc2ccccc2)c(OC)cc1I (centres undefined)", 1],
  ["COc1cc(CC(C)N(C)C(C)C)c(OC)cc1I (centres undefined)", 1],
  ["COc1cc(CC(C)NCC#N)c(OC)cc1I (centres undefined)", 1]
]}

Request: State whether 5% exceeds Dose recorded for COc1cc(CC(C)NCC2CC2)c(OC)cc1I (centres undefined) .
Result: 1

Request: State whether 5% exceeds Dose recorded for COc1cc(CC(C)NN)c(OC)cc1I (centres undefined) .
Result: 1

Request: State whether 5% exceeds Dose recorded for COc1cc(CC(C)N(C)C)c(OC)cc1I (centres undefined) .
Result: -1

Request: State whether 5% exceeds Dose recorded for CCN(CC)C(C)Cc1cc(OC)c(I)cc1OC (centres undefined) .
Result: 1

---

Recorded Dose for the following compounds
- Organism: Rattus norvegicus
- test details: The distribution of the 131 I-labeled compound at 30 min was evaluated in rat brain as Percent of injected dose per gram in the organ
- Assay type: ADME, organism-based
- applied conditions: in vivo, 0.5 h
Answer format: numeric, % implied, no suffix.

Some compounds with known Dose results, for comparison:
{"columns": ["compound", "measurement unit", "Dose"],
 "data": [
  ["CCN(CC)C(C)Cc1cc(OC)c(I)cc1OC (stereo not drawn)", "%", 0.13],
  ["CNC(C)Cc1cc(OC)c(I)cc1OC (stereo not drawn)", "%", 0.62],
  ["COc1cc(CC(C)NN)c(OC)cc1I (stereo not drawn)", "%", 0.08],
  ["COc1cc(CC(C)NC(C)C)c(OC)cc1I (stereo not drawn)", "%", 0.3],
  ["COc1cc(CC(C)N(C)C)c(OC)cc1I (stereo not drawn)", "%", 0.55],
  ["COc1cc(CC(C)N(C)Cc2ccccc2)c(OC)cc1I (stereo not drawn)", "%", 0.05]
]}

Request: Name the recorded Dose for COc1cc(CC(C)N)c(OC)cc1I (stereo not drawn) .
Result: 0.4

---

- Organism: Rattus norvegicus
- test details: Ratio of distribution of the [131I]-labeled compound at 30 min in rat brain over uptake in blood
- Type: ADME, organism-based
- applied conditions: 0.5 h
Recorded Ratio for the following compounds
No unit in the answer, only the number.

{"columns": ["compound", "result number"],
 "data": [
  ["COc1cc(CC(C)NCC#N)c(OC)cc1I (stereo not given)", 2.4],
  ["CCN(CC)C(C)Cc1cc(OC)c(I)cc1OC (stereo not given)", 4.3],
  ["COc1cc(CC(C)NCCCN(C)C)c(OC)cc1I (stereo not given)", 0.3]
]}

Request: Name the recorded Ratio for COc1cc(CC(C)NCc2ccccc2)c(OC)cc1I (stereo not given) .
Result: 2.5

Request: Name the recorded Ratio for COc1cc(CC(C)N)c(OC)cc1I (stereo not given) .
Result: 6.7

Request: Name the recorded Ratio for COc1cc(CC(C)NO)c(OC)cc1I (stereo not given) .
Result: 3.9

Request: Name the recorded Ratio for COc1cc(CC(C)N(C)C(C)C)c(OC)cc1I (stereo not given) .
Result: 0.09

Request: Name the recorded Ratio for CNC(C)Cc1cc(OC)c(I)cc1OC (stereo not given) .
Result: 2.2

Request: Name the recorded Ratio for CCCCCCNC(C)Cc1cc(OC)c(I)cc1OC (stereo not given) .
Result: 3.4

Request: Name the recorded Ratio for COc1cc(CC(C)N(C)C)c(OC)cc1I (stereo not given) .
Result: 5

Request: Name the recorded Ratio for COc1cc(CC(C)N(C)Cc2ccccc2)c(OC)cc1I (stereo not given) .
Result: 0.09

Request: Name the recorded Ratio for COc1cc(CC(C)NCC2CC2)c(OC)cc1I (stereo not given) .
Result: 2.1
